- Tested on: MDA-N
- experiment_description: NCI tumour cell line growth inhibition, 48 h
measurement_kind: TGI

CC1=C/C(=N\O)C(C(O)(C(F)(F)F)C(F)(F)F)C(C)(C)C1 (stereo unspecified): > 10 µM

## Input Consider the compound COC(=O)/C=C1/CCC(C)(C(=O)NS(=O)(=O)c2ccc(C)cc2)C1(C)C (stereo unspecified) . State its measured TGI.
## Output > 100 µM

## Input Consider the compound O=S(=O)(O)c1ccc(N=Nc2c(O)ccc3cc(Br)ccc23)cc1 . State its measured TGI.
## Output > 100 µM

## Input Consider the compound C=CC(C1=CC(=O)C(OC)=CC1=O)c1ccccc1 (stereo unspecified) . State its measured TGI.
## Output 31.6 µM

## Input Consider the compound O=c1oc2ccccc2c(O)c1/C=N/C(=S)NCCc1ccccc1 . State its measured TGI.
## Output > 100 µM

## Input Consider the compound CC1CC[C@@]2(OC1)OC1CC3C4CCC5C[C@@H](OC6OC(CO)C(OC7OC(CO)C(O)C(OC8OC(CO)C(O)C(OC9OC(CO)C(O)C(O)C9O)C8O)C7OC7OC(CO)C(O)C(O)C7O)C(O)C6O)[C@H](O)C[C@]5(C)C4CC[C@]3(C)C1[C@@H]2C (stereo partly specified) . State its measured TGI.
## Output > 80.5 µM

====

- Tested on: A549 NSCLC
- experiment_description: NCI tumour cell line growth inhibition, 48 h
Where a SMILES comes first, the peptide text is derived from it. The star is where a group is joined. Cbz = O=C(OCc1ccccc1)*; Boc = CC(C)(C)OC(=O)*; OSu = O=C1CCC(=O)N1O*; Bn = c1ccc(C*)cc1
Measured TGI, listed per entry.

Field: example entries. Status: answers known.
CNC(=O)OCc1c2ccncc2c(C)c2c1[nH]c1ccccc12: 2.58 µM
CN(N)c1cc(=O)[nH]c(=O)[nH]1: > 100 µM
CC(C)(C)OC(=O)NC(Cc1ccc(OCc2ccccc2)cc1)C(=O)NC(CCCCNC(=O)OCc1ccccc1)C(=O)ON1C(=O)CCC1=O (stereo unspecified) (Boc-Tyr(Bn)-Lys(Cbz)-OSu; configuration not given here): > 100 µM
COc1ccc2cc(-c3cc4c(oc3=O)-c3ccccc3OC4O)c(=O)oc2c1 (stereo unspecified): 28.2 µM
CC(=O)Nc1ccc(-c2nc3ccccc3s2)cc1I: > 100 µM

## Input // output TGI; input CS(=O)(=O)Nc1ccc(-c2cc(-c3ccccc3)cc(C(N)=O)c2N)cc1 ; system A549 NSCLC
## Output > 25 µM

## Input // output TGI; input CCOC(=O)CSc1nnc2cc(CN3CCCC3)c(-c3ccc(Cl)cc3)nn12 ; system A549 NSCLC
## Output > 100 µM

====

- System: UACC-62 melanoma
- experiment_description: NCI tumour cell line growth inhibition, 48 h
measurement_kind: TGI (µM)
API: value field is a number in µM; no unit string.

## Input // output TGI; input COc1ccc(/C(O)=C/c2nc3cccnc3nc2/C=C(\O)c2ccc(OC)cc2)cc1 ; system UACC-62 melanoma
## Output 44.7

====

- Test system: UO-31 renal
- experiment_description: NCI tumour cell line growth inhibition, 48 h
measurement_kind: TGI

CCOC(=O)C(C)NC(=O)C(C)NC(=O)C(C)NC(=O)C(C)NC(=O)C(C)NC(=O)OCc1ccccc1 (centres undefined): > 100 µM

## Input Consider the compound C[C@]12CC[C@H](O)C[C@H]1CC[C@@H]1[C@@H]2CC[C@]2(C)[C@@H](C3=CC(=O)OC3)[C@@H](O)C[C@]12O . State its measured TGI.
## Output 2.26 µM

## Input Consider the compound CNC(=O)OCc1c2ccncc2c(C)c2c1[nH]c1ccccc12 . State its measured TGI.
## Output 0.966 µM

====

- Tested on: NCI-H23 lung
- experiment_description: NCI tumour cell line growth inhibition, 48 h
Measured TGI, listed per entry.

Field: example entries. Status: answers known.
O=c1oc2ccccc2c(O)c1/C=N/C(=S)NCCc1ccccc1: > 88 µM
Nc1nc(OCc2cc(Br)cs2)c2[nH]cnc2n1: > 100 µM
CC1Oc2c(c(=O)oc3ccccc23)[C@@]1(C)CC1C[C@H](C)C(=O)O1 (stereo partly specified): 40.9 µM
CC(=O)NC(c1nc2cc(C)c(C)cc2[nH]1)c1nc2cc(C)c(C)cc2[nH]1: > 100 µM
CCC(=O)c1ccc2[nH]c3c(C)c4c(=O)cc(C)[nH]c4c(C)c3c2c1: > 100 µM

## Input Consider the compound NC(=O)CCC(N=C(N)c1csc(C2OC(CO)C(O)C2O)n1)C(=O)O (stereo unspecified) . State its measured TGI.
## Output > 100 µM

## Input Consider the compound O=C(O)c1cc(/C=C/c2cc(O)ccc2O)ccc1O . State its measured TGI.
## Output > 10 µM

## Input Consider the compound COc1ccc2cc(C(=O)O)ccc2c1OC . State its measured TGI.
## Output > 100 µM

## Input Consider the compound COc1ccc2c(c1)[n+](=O)c(C(=O)c1ccco1)c(C(F)(F)F)n2[O-] . State its measured TGI.
## Output 5.05 µM

## Input Consider the compound CC(C)(C)C(=O)OCOP(=O)(OCOC(=O)C(C)(C)C)C1CC(O)N(O)C1=O (stereo unspecified) . State its measured TGI.
## Output 25.3 µM

## Input Consider the compound Oc1ccc(O)c(-c2cn3ccsc3n2)c1 . State its measured TGI.
## Output 64.3 µM

====

- System: ACHN renal
- experiment_description: NCI tumour cell line growth inhibition, 48 h
measurement_kind: GI50

## Input Consider the compound O=C(/C(=C\c1ccc([N+](=O)[O-])cc1)S(=O)Cc1ccc(F)cc1)c1ccc(F)cc1 (stereo not given) . State its measured GI50.
## Output 2.33 µM

## Input Consider the compound COc1cc2nc(SCC(=O)Nc3cc(OC)c(OC)c(OC)c3)n(Cc3ccccc3)c(=O)c2cc1OC . State its measured GI50.
## Output 4.63 µM

## Input Consider the compound Nc1nc(OCc2cc(Br)cs2)c2[nH]cnc2n1 . State its measured GI50.
## Output 13.7 µM

## Input Consider the compound CC1COc2c(N3CCN(C)CC3)c(F)cc3c(=O)c(C(=O)O)cn1c23 (stereo not given) . State its measured GI50.
## Output > 100 µM

## Input Consider the compound CC(=O)c1cc(C(=O)c2ccc3c(c2)Sc2ccccc2N3)c2c(C)cc(C)cn12 . State its measured GI50.
## Output 0.605 µM

====

Measured log10 of TGI, listed per entry.
- Tested on: IGROV1 ovarian
- experiment_description: NCI tumour cell line growth inhibition, 48 h
The base-10 logarithm of TGI, taken with TGI in µM, is what appears here.

Field: example entries. Status: answers known.
NC(N)=N/N=C/c1c(-c2cc(Cl)sc2Cl)nc2sccn12: 0.91
c1ccc(CNCCCCNCCCNCc2ccccc2)cc1: 1.43
O=[N+]([O-])c1ccc(Sc2ncnc3nc[nH]c23)c2nonc12: 0.88
CCN(CC)CCOc1ccccc1/C=C/c1noc2ccccc12: 1.35
CCOC(=O)c1c(C)n2c(=O)cc(C)c3c(O)c(O)cc1c32: 1.94

Lab note: next molecule to report on.
## Input Consider the molecule CC(=O)Oc1ccccc1/C=C/C(=O)/C=C/c1ccccc1OC(C)=O . State its measured log10 of TGI.
## Output 0.66

====

Measured GI50, listed per entry.
- Test system: MOLT-4 leukemia
- experiment_description: NCI tumour cell line growth inhibition, 48 h

Field: example entries. Status: answers known.
Cc1ccc(-c2cc3c(SCC(=O)Nc4cc(C(F)(F)F)ccc4Cl)nccn3n2)cc1: > 100000 nM
NC(N)=N/N=C/c1c(-c2cc(Cl)sc2Cl)nc2sccn12: 912 nM

## Input Consider the compound COC(=O)[C@]12CC[C@@H](C)[C@H](C)[C@@H]1C1=CC[C@@H]3[C@@]4(C)C(C=O)=C[C@@](C)(COC(C)=O)C4=CC[C@@]3(C)[C@]1(C)CC2 . State its measured GI50.
## Output 1820 nM

## Input Consider the compound CC1=CC(=C(c2ccc(N)cc2)c2ccc(N)cc2)C=CC1=N . State its measured GI50.
## Output 1490 nM

## Input Consider the compound CC1(C)CCC2=C(O1)c1ccccc1C(=O)C2=O . State its measured GI50.
## Output 2670 nM

====

Measured TGI, listed per entry.
- Tested on: SR leukemia
- experiment_description: NCI tumour cell line growth inhibition, 48 h

Field: example entries. Status: answers known.
O=P1(Oc2ccccc2)N(CCCl)CCN1c1ccccc1 (stereo not given): > 100 µM
CC(=O)OC1CCCn2c1nc1c2C(=O)C(C)=C(N2CC2)C1=O (stereo not given): > 100 µM
CC1=CC(=C(c2ccc(N)cc2)c2ccc(N)cc2)C=CC1=N: > 58.8 µM
O=c1ccn(C2OC(CO)C(O)C2[Se]c2ccccc2)c(=O)[nH]1 (stereo not given): > 100 µM

Lab note: next molecule to report on.
## Input Consider the molecule O=C(c1ccccc1)c1ccc(Oc2ccc([N+](=O)[O-])cc2[N+](=O)[O-])cc1 . State its measured TGI.
## Output 7.79 µM
